Test: Volume of distribution in diet-induced obese mouse at 5 mg/kg, po or 1 mg/kg, iv
Assay type: ADME, organism-based
Settings: in vivo
EXPERIMENTAL ENDPOINT: Vd (L/kg)

- Cc1nc(N2CC[C@@H](O)C2)ncc1-c1cc(C(F)(F)F)cc2[nH]ncc12: 1.25

###

Experiment: Half life in diet-induced obese mouse at 5 mg/kg, po or 1 mg/kg, iv
Format: ADME, organism-based
Conditions: in vivo
EXPERIMENTAL ENDPOINT: half-life

- Cc1nc(N2CC[C@@H](O)C2)ncc1-c1cc(C(F)(F)F)cc2[nH]ncc12: 2 h
